Property: Recovered on parafilm and in washes; scope: individual compounds
Experiment: Skin permeation study, Franz diffusion cell
Type: in vitro ADME, porcine
Settings: mass balance, 8 h
Experimental: In each Franz cell, a piece of pig ear skin prepared to a thickness of −1 mm was clamped securely. […] The aliquot samples collected were subjected to 2-step extraction using 750 μL of dichloromethane (DCM). […] The compounds' steady state fluxes and permeability coefficients were then calculated by fitting the solution to Fick's […] of diffusion at the steady state (linear part) of each experimental cumulative amount curve.

Examples with their reported Recovered on parafilm and in washes follow.
>  <compound>
Nc1ccc(N)c(OCCO)c1

>  <Recovered on parafilm and in washes>
0.003 % of applied compound dose

$$$$
>  <compound>
C=C(C)Oc1cc(N)ccc1N

>  <Recovered on parafilm and in washes>
0.007 % of applied compound dose

$$$$
>  <compound>
Nc1ccc(N)c(OCOCO)c1

>  <Recovered on parafilm and in washes>
0.004 % of applied compound dose

$$$$
>  <compound>
Nc1ccc(N)c(OCC2CO2)c1 (stereo not drawn)

>  <Recovered on parafilm and in washes>
0.008 % of applied compound dose

$$$$
>  <compound>
COCCOc1cc(N)ccc1N

>  <Recovered on parafilm and in washes>
0.001 % of applied compound dose

$$$$
>  <compound>
COC(COc1cc(N)ccc1N)OC

>  <Recovered on parafilm and in washes>
0.003 % of applied compound dose

$$$$
>  <compound>
N#CCOc1cc(N)ccc1N

>  <Recovered on parafilm and in washes>
0.002 % of applied compound dose

$$$$
>  <compound>
CCC(=O)COc1cc(N)ccc1N

>  <Recovered on parafilm and in washes>
0.005 % of applied compound dose

$$$$

Pending compound:
Query Recovered on parafilm and in washes for `CNCCOc1cc(N)ccc1N`
0.003 % of applied compound dose

---

Property: solubility at 24 h; scope: individual molecules
Assay: Thermodynamic solubility assay (modified shake flask, LC-MS/MS)
Conditions: 25 °C, pH 7, water, thermodynamic from solid
Quick reminder: number only, in mg/mL, skip the unit.

>  <molecule>
Nc1ccc(N)cc1 [PPD, para-phenylenediamine]

>  <solubility at 24 h (mg/mL)>
40

$$$$

Pending molecule:
Query solubility at 24 h for Cc1cc(N)ccc1N [PTD, 2-methylbenzene-1,4-diamine]
2.5

---

Assay: Skin permeation study, Franz diffusion cell
Format: in vitro ADME, porcine
Settings: pig; end of 8 h; read-out: Total recovery (mean percentage parent compound recovery)
recorded-endpoint: recovery at 8 h, 1 % w/v (%)
Quick reminder: number only, in %, skip the unit.

Examples with their reported recovery at 8 h, 1 % w/v follow.
>  <compound>
C=C(C)Oc1cc(N)ccc1N [Compound N12, 2-(prop-1-en-2-yloxy)benzene-1,4-diamine]

>  <recovery at 8 h, 1 % w/v, %>
96.1

$$$$
>  <compound>
Nc1ccc(N)c(OCCO)c1 [Compound N9, 2-(2,5-diaminophenoxy)ethan-1-ol]

>  <recovery at 8 h, 1 % w/v, %>
94.6

$$$$
>  <compound>
Nc1ccc(N)c(OCOCO)c1 [Compound N8, ((2,5-diaminophenoxy)methoxy)methanol]

>  <recovery at 8 h, 1 % w/v, %>
95.1

$$$$

Query recovery at 8 h, 1 % w/v for CCC(=O)COc1cc(N)ccc1N [Compound N11, 1-(2,5-diaminophenoxy)butan-2-one]
93.8

Query recovery at 8 h, 1 % w/v for CC(O)COc1cc(N)ccc1N (stereo not drawn) [Compound N10, 1-(2,5-diaminophenoxy)propan-2-ol]
95.1

Query recovery at 8 h, 1 % w/v for CCOCOc1cc(N)ccc1N [Compound N3, 2-(ethoxymethoxy)benzene-1,4-diamine]
97
